These entries and their values trace back to ChEMBL document CHEMBL5291721.

- target or test system: Epidermal growth factor receptor (Homo sapiens); also: assay procedure not described here
- Sequence (P00533 whole entry): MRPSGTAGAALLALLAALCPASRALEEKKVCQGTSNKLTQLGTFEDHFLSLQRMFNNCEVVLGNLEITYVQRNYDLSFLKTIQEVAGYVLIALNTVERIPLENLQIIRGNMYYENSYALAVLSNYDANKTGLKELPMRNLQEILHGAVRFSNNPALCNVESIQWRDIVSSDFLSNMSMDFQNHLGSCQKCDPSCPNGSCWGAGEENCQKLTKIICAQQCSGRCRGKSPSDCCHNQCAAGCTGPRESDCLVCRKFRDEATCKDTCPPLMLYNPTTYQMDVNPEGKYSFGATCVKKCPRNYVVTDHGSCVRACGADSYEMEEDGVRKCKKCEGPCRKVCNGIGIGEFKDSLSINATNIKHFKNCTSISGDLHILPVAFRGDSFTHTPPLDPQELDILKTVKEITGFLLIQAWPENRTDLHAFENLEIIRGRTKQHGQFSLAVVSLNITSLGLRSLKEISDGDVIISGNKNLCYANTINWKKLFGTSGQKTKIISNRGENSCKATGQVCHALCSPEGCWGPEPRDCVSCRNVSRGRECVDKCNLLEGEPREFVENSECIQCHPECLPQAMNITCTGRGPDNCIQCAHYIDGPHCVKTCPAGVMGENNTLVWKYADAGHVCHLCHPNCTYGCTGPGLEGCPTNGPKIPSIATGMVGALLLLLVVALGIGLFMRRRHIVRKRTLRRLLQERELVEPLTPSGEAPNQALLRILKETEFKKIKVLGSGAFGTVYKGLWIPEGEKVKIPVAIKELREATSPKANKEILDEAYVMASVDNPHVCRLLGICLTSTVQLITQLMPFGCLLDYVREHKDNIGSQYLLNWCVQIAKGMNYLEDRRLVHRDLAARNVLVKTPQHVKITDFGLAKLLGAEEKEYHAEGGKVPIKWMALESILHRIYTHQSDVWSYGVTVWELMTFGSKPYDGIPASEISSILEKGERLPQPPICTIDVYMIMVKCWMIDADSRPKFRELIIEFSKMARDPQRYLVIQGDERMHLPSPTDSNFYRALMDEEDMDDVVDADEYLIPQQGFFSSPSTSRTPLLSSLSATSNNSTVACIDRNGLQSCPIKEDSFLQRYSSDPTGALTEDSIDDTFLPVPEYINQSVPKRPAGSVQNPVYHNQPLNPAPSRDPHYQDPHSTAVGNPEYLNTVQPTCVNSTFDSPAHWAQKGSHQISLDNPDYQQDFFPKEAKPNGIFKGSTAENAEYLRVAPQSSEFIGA
- Assay type: functional
endpoint label: AC50

Worked cases, answers included:
INSERT INTO results (compound, result) VALUES
  ('COC(=O)[C@@H]1CC2=CC(=O)CC[C@]2(C)[C@@]23O[C@@H]2C[C@@]2(C)[C@@H](CC[C@@]24CCC(=O)O4)[C@H]13 [EPLERENONE]', '> 30 µM'),
  ('CO/N=C(\C(=O)N[C@@H]1C(=O)N2C(C(=O)[O-])=C(C[N+]3(C)CCCC3)CS[C@H]12)c1csc(N)n1', '> 300 µM');

Entry CC(C)Cc1ccc(CC(=O)O)cc1 [IBUFENAC] ; assay system Epidermal growth factor receptor (Homo sapiens); AC50 recorded at > 30 µM

Entry CC(C)NNC(=O)c1ccncc1 [IPRONIAZID] ; assay system Epidermal growth factor receptor (Homo sapiens); AC50 recorded at > 30 µM
